Each entry below carries its recorded pIC50.
- System: TNF-α
- Protocol Details: Inhibition of TNF-α production following LPS-stimulation of human PBMC
- Type: cell-based
- Conditions Used: human PBMC, LPS-stimulated, in vitro; read-out: IC50 for inhibiting production of TNF-α following LPS-stimulation of PBMC
pIC50: −log10 of the molar value.

Measured on TNF-α, O=C1CCC(N2C(=O)c3ccccc3C2=O)C(=O)N1 (racemic) [Thalidomide, thalidomide, reference compound] has a documented pIC50 of ~3.71

Measured on TNF-α, Nc1cccc2c1C(=O)N(C1CCC(=O)NC1=O)C2=O (stereo not drawn) has a documented pIC50 of ~7.62

Measured on TNF-α, Nc1cccc2c1CN(C1CCC(=O)NC1=O)C2=O (stereo not drawn) has a documented pIC50 of ~7.00

Where these numbers come from: patent US20050100529A1
